Source listed as patent US20160354480A1.

Assay Target: T1, rat neurotensin receptor type 1 (rat, UniProt P20789 1-424)
T1 construct: whole, on cells; Used as membrane homogenates of transfected HEK 293 cells (0.75 ug/well), not intact cells; also called rNTR-1; rNTR1
T1 sequence (P20789 whole entry): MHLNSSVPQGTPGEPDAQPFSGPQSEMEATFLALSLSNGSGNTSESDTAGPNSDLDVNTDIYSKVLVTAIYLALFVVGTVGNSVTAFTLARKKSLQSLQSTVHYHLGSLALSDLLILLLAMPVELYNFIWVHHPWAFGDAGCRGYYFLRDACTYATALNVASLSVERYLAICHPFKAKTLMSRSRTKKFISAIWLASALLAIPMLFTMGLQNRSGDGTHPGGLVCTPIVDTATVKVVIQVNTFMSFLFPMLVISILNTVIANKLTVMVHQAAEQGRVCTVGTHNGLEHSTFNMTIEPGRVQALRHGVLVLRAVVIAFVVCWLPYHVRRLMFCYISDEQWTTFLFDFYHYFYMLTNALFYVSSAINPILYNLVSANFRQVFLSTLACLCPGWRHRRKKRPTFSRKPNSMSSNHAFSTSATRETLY
Assay Method Text: competition with [3H]-neurotensin on membranes of HEK 293 cells expressing rat NTR-1; Ki from mean IC50 by Cheng-Prusoff
Bridge positions count the residues as written; N and C are the ends. Square brackets hold non-standard residues; d marks the D form. * marks the point of attachment. Pen = CC(C)(S)[C@H](N)C(=O)O; Tle = CC(C)(C)[C@H](N)C(=O)O; Pip = O=C(O)[C@@H]1CCCCN1; Propionyl = CCC(=O)*; Sar = CNCC(=O)O
Experimental Readout: pKi
Please keep in mind that pKi is minus log10 of the molar concentration; only the number is needed.

Worked cases, answers included:
>>> recorded_value("Propionyl-[dC]M[Pip]RLR[Sar]CKRPW[Tle]L-OH (disulfide 1-8; SMILES CCC(=O)N[C@@H]1CSSC[C@@H](C(=O)N[C@@H](CCCCN)C(=O)N[C@@H](CCCNC(=N)N)C(=O)N2CCC[C@H]2C(=O)N[C@@H](Cc2c[nH]c3ccccc23)C(=O)N[C@H](C(=O)N[C@@H](CC(C)C)C(=O)O)C(C)(C)C)NC(=O)CN(C)C(=O)[C@H](CCCNC(=N)N)NC(=O)[C@H](CC(C)C)NC(=O)[C@H](CCCNC(=N)N)NC(=O)[C@@H]2CCCCN2C(=O)[C@H](CCSC)NC1=O) [compound XIX, SEQ ID NO: 9-[Lys8, Trp11, Tle12]NT(8-13)]")
10.52
>>> recorded_value("Propionyl-[dC]M[Pip]RLR[Sar]CRRPY[Tle]L-OH (disulfide 1-8; SMILES CCC(=O)N[C@@H]1CSSC[C@@H](C(=O)N[C@@H](CCCNC(=N)N)C(=O)N[C@@H](CCCNC(=N)N)C(=O)N2CCC[C@H]2C(=O)N[C@@H](Cc2ccc(O)cc2)C(=O)N[C@H](C(=O)N[C@@H](CC(C)C)C(=O)O)C(C)(C)C)NC(=O)CN(C)C(=O)[C@H](CCCNC(=N)N)NC(=O)[C@H](CC(C)C)NC(=O)[C@H](CCCNC(=N)N)NC(=O)[C@@H]2CCCCN2C(=O)[C@H](CCSC)NC1=O) [compound XV, SEQ ID NO: 9-[Tle12]NT(8-13)]")
10.22
>>> recorded_value("Propionyl-[dC]M[Pip]RLR[Sar]CRKPY[Tle]L-OH (disulfide 1-8; SMILES CCC(=O)N[C@@H]1CSSC[C@@H](C(=O)N[C@@H](CCCNC(=N)N)C(=O)N[C@@H](CCCCN)C(=O)N2CCC[C@H]2C(=O)N[C@@H](Cc2ccc(O)cc2)C(=O)N[C@H](C(=O)N[C@@H](CC(C)C)C(=O)O)C(C)(C)C)NC(=O)CN(C)C(=O)[C@H](CCCNC(=N)N)NC(=O)[C@H](CC(C)C)NC(=O)[C@H](CCCNC(=N)N)NC(=O)[C@@H]2CCCCN2C(=O)[C@H](CCSC)NC1=O) [compound XVII, SEQ ID NO: 9-[Lys9, Tle12]NT(8-13)]")
9.72

Query binder follows.
Prompt line: For Propionyl-[dC]M[Pip]RLR[Sar][Pen]KRPY[Tle]L-OH (disulfide 1-8; SMILES CCC(=O)N[C@@H]1CSSC(C)(C)[C@@H](C(=O)N[C@@H](CCCCN)C(=O)N[C@@H](CCCNC(=N)N)C(=O)N2CCC[C@H]2C(=O)N[C@@H](Cc2ccc(O)cc2)C(=O)N[C@H](C(=O)N[C@@H](CC(C)C)C(=O)O)C(C)(C)C)NC(=O)CN(C)C(=O)[C@H](CCCNC(=N)N)NC(=O)[C@H](CC(C)C)NC(=O)[C@H](CCCNC(=N)N)NC(=O)[C@@H]2CCCCN2C(=O)[C@H](CCSC)NC1=O) [compound XX, SEQ ID NO: 11-[Lys8, Tle12]NT(8-13)] , write its pKi.
Response line: 10.10
